Target: Beta-2 adrenergic receptor (Cavia porcellus, UniProt Q8K4Z4)
Sequence (Q8K4Z4 whole entry): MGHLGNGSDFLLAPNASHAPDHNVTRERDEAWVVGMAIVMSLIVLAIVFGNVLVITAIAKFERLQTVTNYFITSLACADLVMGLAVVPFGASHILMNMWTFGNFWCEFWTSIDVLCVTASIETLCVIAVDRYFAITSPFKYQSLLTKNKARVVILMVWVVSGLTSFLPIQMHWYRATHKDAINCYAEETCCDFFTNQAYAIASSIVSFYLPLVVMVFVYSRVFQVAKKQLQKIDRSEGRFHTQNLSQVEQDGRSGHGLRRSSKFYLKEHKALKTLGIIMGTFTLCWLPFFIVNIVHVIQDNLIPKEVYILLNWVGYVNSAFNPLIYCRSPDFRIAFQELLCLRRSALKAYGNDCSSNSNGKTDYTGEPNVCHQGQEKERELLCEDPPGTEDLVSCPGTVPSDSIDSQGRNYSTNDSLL
Test: Agonist activity at beta2-adrenoceptor in guinea pig trachea assessed as relaxation of histamine-induced precontracted tracheal rings
property label: EC50 (nM)
Give bare numbers, in nM.

Here's what some known entries look like.
COc1ccc(C(=O)Nc2c(Cl)cncc2Cl)cc1OCCCCCNCC(O)c1ccc(O)c(CO)c1 (centres undefined)	1.95
CC(C)NCC(O)c1ccc(O)c(O)c1 (centres undefined)	28.8
COc1ccc(C(=O)Nc2c(Cl)cncc2Cl)cc1OCCCNCC(O)c1ccc(O)c(CO)c1 (centres undefined)	3.39

Kindly consider the entry below.
Inquiry: Tell me EC50 of COc1ccc(C(=O)Nc2c(Cl)cncc2Cl)cc1OCCCCCCNCC(O)c1ccc(O)c(CO)c1 (centres undefined) when tested on Beta-2 adrenergic receptor (Cavia porcellus, UniProt Q8K4Z4).
Reply text: 3.16

----------
Target: 3',5'-cyclic-AMP phosphodiesterase 4B (Homo sapiens)
Sequence (Q07343 whole entry): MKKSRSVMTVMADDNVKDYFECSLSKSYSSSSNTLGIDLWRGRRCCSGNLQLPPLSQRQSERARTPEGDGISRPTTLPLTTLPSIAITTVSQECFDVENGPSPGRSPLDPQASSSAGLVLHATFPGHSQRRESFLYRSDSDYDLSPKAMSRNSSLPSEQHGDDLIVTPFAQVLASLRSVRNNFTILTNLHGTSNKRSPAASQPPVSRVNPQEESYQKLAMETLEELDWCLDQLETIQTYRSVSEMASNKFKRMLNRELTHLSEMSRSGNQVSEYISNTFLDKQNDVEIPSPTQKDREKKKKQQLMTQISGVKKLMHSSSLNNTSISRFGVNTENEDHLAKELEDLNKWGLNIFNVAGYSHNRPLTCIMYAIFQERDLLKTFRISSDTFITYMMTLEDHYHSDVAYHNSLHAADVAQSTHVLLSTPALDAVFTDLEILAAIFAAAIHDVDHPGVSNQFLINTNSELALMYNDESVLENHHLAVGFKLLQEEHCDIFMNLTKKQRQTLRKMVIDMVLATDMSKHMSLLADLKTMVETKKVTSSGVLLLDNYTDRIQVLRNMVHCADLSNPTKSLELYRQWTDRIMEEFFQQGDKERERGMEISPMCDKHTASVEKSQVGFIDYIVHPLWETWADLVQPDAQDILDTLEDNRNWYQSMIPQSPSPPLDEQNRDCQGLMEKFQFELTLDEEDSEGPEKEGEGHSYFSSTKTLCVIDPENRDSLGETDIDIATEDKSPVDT
Assay: Inhibition of human recombinant PDE4B2 assessed as decrease in cAMP hydrolysis preincubated with substrate prior to enzyme addition measured after 30 mins by colorimetric assay method
property label: pIC50
Answers are plain numbers, as −log10 of the molar value.

Past entries and their recorded results:
COc1ccc(C2=NN(CCCCCNCC(O)c3ccc(O)c(CO)c3)C(=O)C3CCCCC23)cc1OC (stereo not drawn)	6.57
COc1ccc(C2=NN(CCCCCCNCC(O)c3ccc(O)c(CO)c3)C(=O)C3CCCCC23)cc1OC (stereo not drawn)	6.58
COc1ccc(C(=O)Nc2c(Cl)cncc2Cl)cc1OCCCNCC(O)c1ccc(O)c(CO)c1 (stereo not drawn)	5.96
COc1ccc(C(=O)Nc2c(Cl)cncc2Cl)cc1OCCCCCNCC(O)c1ccc(O)c(CO)c1 (stereo not drawn)	6.40

Batch lookup, pIC50 per entry.
1. COc1ccc(C2=NN(CCCCNCC(O)c3ccc(O)c(CO)c3)C(=O)C3CCCCC23)cc1OC (stereo not drawn)
2. COc1ccc(C(=O)Nc2c(Cl)cncc2Cl)cc1OCCCCCCNCC(O)c1ccc(O)c(CO)c1 (stereo not drawn)
3. COc1ccc(C(=O)Nc2c(Cl)cncc2Cl)cc1OCCCCNCC(O)c1ccc(O)c(CO)c1 (stereo not drawn)
4. COc1ccc(C2=NN(CCNCC(O)c3ccc(O)c(CO)c3)C(=O)C3CCCCC23)cc1OC (stereo not drawn)

Reply text:
1: 6.56; 2: 6.63; 3: 6.22; 4: 6.55

----------
Molecular target: Beta-2 adrenergic receptor (Cavia porcellus)
Assay: Agonist activity at beta2-adrenoceptor in guinea pig trachea assessed as relaxation of histamine-induced precontracted tracheal rings
Would you mind telling me the reported EC50 of each entry?

COc1ccc(C(=O)Nc2c(Cl)cncc2Cl)cc1OCCCCNCC(O)c1ccc(O)c(CO)c1 (stereo not given)	2.82 nM
COc1ccc(C2=NN(CCCCCCNCC(O)c3ccc(O)c(CO)c3)C(=O)C3CCCCC23)cc1OC (stereo not given)	0.631 nM
COc1ccc(C2=NN(CCCCNCC(O)c3ccc(O)c(CO)c3)C(=O)C3CCCCC23)cc1OC (stereo not given)	0.676 nM
COc1ccc(C2=NN(CCNCC(O)c3ccc(O)c(CO)c3)C(=O)C3CCCCC23)cc1OC (stereo not given)	0.646 nM

Okay, now this compound:
Inquiry: Specify measured EC50 for COc1ccc(C2=NN(CCCCCNCC(O)c3ccc(O)c(CO)c3)C(=O)C3CCCCC23)cc1OC (stereo not given) .
Reply text: 0.832 nM
